biological target: Mitochondrial complex V; ATP synthase (Bos taurus, UniProt P00829+P05630+P05631+P05632); experiment: Inhibitory activity against bovine mitochondrial F1F0 ATP hydrolase; format: protein-complex assay
Sequence (P05632 whole entry): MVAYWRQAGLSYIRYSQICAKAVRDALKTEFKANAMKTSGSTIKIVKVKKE
Sequence (P00829 whole entry): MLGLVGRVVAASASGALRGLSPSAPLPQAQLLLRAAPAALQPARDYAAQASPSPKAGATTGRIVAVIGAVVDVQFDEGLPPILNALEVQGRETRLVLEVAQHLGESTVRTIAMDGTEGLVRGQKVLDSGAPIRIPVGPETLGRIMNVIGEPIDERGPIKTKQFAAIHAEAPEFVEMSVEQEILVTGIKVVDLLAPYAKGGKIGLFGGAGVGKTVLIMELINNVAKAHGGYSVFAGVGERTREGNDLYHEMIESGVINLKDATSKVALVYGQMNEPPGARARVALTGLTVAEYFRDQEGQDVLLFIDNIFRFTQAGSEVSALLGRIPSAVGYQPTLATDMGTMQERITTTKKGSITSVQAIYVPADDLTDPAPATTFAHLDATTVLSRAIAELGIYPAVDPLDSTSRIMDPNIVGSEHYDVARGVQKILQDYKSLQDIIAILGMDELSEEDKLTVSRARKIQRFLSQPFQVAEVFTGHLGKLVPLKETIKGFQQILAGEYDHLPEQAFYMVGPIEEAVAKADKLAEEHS
Sequence (P05631 whole entry): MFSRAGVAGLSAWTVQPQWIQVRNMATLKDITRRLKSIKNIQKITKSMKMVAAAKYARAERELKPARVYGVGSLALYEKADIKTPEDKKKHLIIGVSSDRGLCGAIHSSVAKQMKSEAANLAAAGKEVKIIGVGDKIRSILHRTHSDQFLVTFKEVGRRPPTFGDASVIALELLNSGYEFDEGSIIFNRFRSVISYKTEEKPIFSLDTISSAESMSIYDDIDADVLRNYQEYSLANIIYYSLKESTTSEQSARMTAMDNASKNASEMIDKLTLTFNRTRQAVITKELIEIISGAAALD
Sequence (P05630 whole entry): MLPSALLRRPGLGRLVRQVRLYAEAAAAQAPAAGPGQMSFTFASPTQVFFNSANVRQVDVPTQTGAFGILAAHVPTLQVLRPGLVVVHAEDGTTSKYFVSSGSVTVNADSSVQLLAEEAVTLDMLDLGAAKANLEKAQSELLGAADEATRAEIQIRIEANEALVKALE
pIC50: −log10 of the molar value.
molecules and their reported pIC50
reportedEndpoint: pIC50

- molecule: "N#Cc1cccc(C(=O)C(Nc2ccc(Cl)cc2)NC(Cn2ccnc2)c2ccc(Cl)cc2Cl)c1 (stereo in doubt; form 1)"
  target: "Mitochondrial complex V; ATP synthase (Bos taurus, UniProt P00829+P05630+P05631+P05632)"
  comparator: "<"
  measValue: 4.00
- molecule: "N#Cc1cccc(C(=O)C(Nc2ccc(Cl)cc2)NC(Cn2ccnc2)c2ccc(Cl)cc2Cl)c1 (stereo in doubt; 19a)"
  target: "Mitochondrial complex V; ATP synthase (Bos taurus, UniProt P00829+P05630+P05631+P05632)"
  comparator: "="
  measValue: 7.48
- molecule: "N#CN/C(=N\\C(Cn1ccnc1)c1ccc(Cl)cc1Cl)Nc1cccc(Cl)c1Cl (stereo not drawn)"
  target: "Mitochondrial complex V; ATP synthase (Bos taurus, UniProt P00829+P05630+P05631+P05632)"
  comparator: "="
  measValue: 5.60
- molecule: "N#Cc1ccc(C(=O)C(Nc2ccc(Cl)cc2)NC(Cn2ccnc2)c2ccc(Cl)cc2Cl)cc1 (stereo not drawn)"
  target: "Mitochondrial complex V; ATP synthase (Bos taurus, UniProt P00829+P05630+P05631+P05632)"
  comparator: "="
  measValue: 6.55
- molecule: "Cc1ccc(NC(=S)OC(Cn2ccnc2)c2ccc(Cl)cc2Cl)cc1 (stereo not drawn)"
  target: "Mitochondrial complex V; ATP synthase (Bos taurus, UniProt P00829+P05630+P05631+P05632)"
  comparator: "="
  measValue: 6.18
- molecule: "O=C(c1ccc(Cl)cc1)C(Nc1ccc(Cl)cc1)NC(Cn1ccnc1)c1ccc(Cl)cc1Cl (stereo not drawn)"
  target: "Mitochondrial complex V; ATP synthase (Bos taurus, UniProt P00829+P05630+P05631+P05632)"
  comparator: "="
  measValue: 7.09
- molecule: "S=C(Nc1ccc(Cl)cc1Cl)OC(Cn1ccnc1)c1ccc(Cl)cc1Cl (stereo not drawn)"
  target: "Mitochondrial complex V; ATP synthase (Bos taurus, UniProt P00829+P05630+P05631+P05632)"
  comparator: "="
  measValue: 7.52
- molecule: "S=C(Nc1ccc(Cl)cc1)OC(Cn1ccnc1)c1ccc(Cl)cc1Cl (stereo not drawn)"
  target: "Mitochondrial complex V; ATP synthase (Bos taurus, UniProt P00829+P05630+P05631+P05632)"
  comparator: "="
  measValue: 6.37
- molecule: "O=C(Nc1ccc(Cl)cc1Cl)OC(Cn1ccnc1)c1ccc(Cl)cc1Cl (stereo not drawn)"
  target: "Mitochondrial complex V; ATP synthase (Bos taurus, UniProt P00829+P05630+P05631+P05632)"
  comparator: "="
  measValue: 5.17
- molecule: "Cc1ccc(NC(=S)OC(Cn2ccnc2)c2ccc(Cl)cc2Cl)c(C)c1 (stereo not drawn)"
  target: "Mitochondrial complex V; ATP synthase (Bos taurus, UniProt P00829+P05630+P05631+P05632)"
  comparator: "="
  measValue: 6.64
- molecule: "S=C(Nc1ccccc1)OC(Cn1ccnc1)c1ccc(Cl)cc1Cl (stereo not drawn)"
  target: "Mitochondrial complex V; ATP synthase (Bos taurus, UniProt P00829+P05630+P05631+P05632)"
  comparator: "="
  measValue: 5.44
- molecule: "S=C(Nc1ccc(Cl)cc1Cl)NC(Cn1ccnc1)c1ccc(Cl)cc1Cl (stereo not drawn)"
  target: "Mitochondrial complex V; ATP synthase (Bos taurus, UniProt P00829+P05630+P05631+P05632)"
  comparator: "="
  measValue: 5.62
- molecule: "N#CN/C(=N\\C(Cn1ccnc1)c1cc(C(F)(F)F)ccc1C(F)(F)F)Nc1ccc(Cl)cc1Cl (stereo not drawn)"
  target: "Mitochondrial complex V; ATP synthase (Bos taurus, UniProt P00829+P05630+P05631+P05632)"
  comparator: "="
  measValue: 6.15
